biological target: SHP2-C SH2; experiment: SH2 binding enrichment of the phosphorylated peptide, bacterial display (enrichment ratio); higher = better substrate or ligand; peptides without Tyr show the background;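 also: peptide library displayed on the E. coli surface as eCPX fusions, selected cells deep-sequenced, score is each peptide's frequency after selection divided by its frequency in the input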

| residue.codes | SH2 binding enrichment |
| --- | --- |
| NHFKIYNPCAE [PTEN_Y68_L70P_YF] | 0.798 |
| PNEAVYTKMMT [G6PD_Y401] | 0.811 |
| KLNNEYLELNY [MME_Y497] | 0.783 |

====

molecular target: EPHB1 (UniProt P54762); test: phosphorylation enrichment, bacterial display (enrichment ratio); higher = better substrate or ligand; peptides without Tyr show the background
Sequence (P54762 whole entry, looked up): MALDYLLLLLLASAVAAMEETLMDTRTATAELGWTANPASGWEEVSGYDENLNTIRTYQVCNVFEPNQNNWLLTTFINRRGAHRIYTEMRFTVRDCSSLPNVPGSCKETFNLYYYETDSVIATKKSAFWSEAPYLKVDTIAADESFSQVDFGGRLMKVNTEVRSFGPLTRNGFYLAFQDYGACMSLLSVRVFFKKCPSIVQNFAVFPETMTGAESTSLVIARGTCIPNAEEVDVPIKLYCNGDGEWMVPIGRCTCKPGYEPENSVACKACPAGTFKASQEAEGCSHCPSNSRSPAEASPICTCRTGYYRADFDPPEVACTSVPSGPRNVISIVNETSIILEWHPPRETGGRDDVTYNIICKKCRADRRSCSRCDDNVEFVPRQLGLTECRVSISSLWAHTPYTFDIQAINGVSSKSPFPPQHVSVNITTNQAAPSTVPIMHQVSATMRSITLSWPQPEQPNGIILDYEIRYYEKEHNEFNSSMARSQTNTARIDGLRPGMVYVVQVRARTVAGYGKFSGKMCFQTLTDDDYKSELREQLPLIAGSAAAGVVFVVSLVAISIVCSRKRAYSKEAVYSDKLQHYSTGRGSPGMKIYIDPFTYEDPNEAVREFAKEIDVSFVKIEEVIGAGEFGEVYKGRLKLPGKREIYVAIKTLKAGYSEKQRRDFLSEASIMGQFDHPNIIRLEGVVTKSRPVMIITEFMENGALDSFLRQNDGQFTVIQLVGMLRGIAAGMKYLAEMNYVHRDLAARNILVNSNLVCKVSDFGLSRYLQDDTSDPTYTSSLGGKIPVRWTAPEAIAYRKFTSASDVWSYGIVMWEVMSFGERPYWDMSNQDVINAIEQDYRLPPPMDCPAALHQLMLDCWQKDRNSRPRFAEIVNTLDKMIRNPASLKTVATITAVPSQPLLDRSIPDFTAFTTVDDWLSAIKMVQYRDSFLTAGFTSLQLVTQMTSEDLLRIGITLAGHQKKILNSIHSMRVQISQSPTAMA

| residue.codes | phosphorylation enrichment |
| --- | --- |
| ANLAKYGNPNE [BCHE_Y505_F502L] | 0.492 |
| RLLRGYNQSAF [HLA-C_Y137_D138N_YF] | 0.503 |
| GLAKGYIDPET [CSNK1G2_Y195_E194G] | 0.509 |

====

We begin with a simple list: items and their reported phosphorylation enrichment.
target: Hck (UniProt P08631); assay: phosphorylation enrichment, bacterial display (enrichment ratio); higher = better substrate or ligand; peptides without Tyr show the background
Sequence (P08631 whole entry, looked up): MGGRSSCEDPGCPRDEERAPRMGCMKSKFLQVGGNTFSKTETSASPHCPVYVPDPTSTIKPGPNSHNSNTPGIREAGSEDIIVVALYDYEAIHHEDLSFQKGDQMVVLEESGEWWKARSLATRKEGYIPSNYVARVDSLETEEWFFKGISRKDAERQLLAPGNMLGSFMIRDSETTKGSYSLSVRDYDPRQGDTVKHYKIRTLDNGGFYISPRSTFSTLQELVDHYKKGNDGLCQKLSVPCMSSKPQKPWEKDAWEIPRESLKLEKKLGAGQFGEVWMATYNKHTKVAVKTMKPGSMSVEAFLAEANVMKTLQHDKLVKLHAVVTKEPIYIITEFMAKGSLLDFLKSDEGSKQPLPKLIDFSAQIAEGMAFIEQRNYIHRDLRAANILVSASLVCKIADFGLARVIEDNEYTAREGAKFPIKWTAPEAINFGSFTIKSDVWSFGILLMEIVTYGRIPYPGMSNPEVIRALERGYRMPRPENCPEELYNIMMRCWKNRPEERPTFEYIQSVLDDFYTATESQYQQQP
endpoint.name: phosphorylation enrichment

| residue.codes | endpoint.name | observed.result |
| --- | --- | --- |
| SLIDGYYRLTE [JAK2_Y372_A377E] | phosphorylation enrichment | 0.583 |
| PTTKTYFPQFD [HBA1_Y43_H46Q] | phosphorylation enrichment | 0.611 |
| ERIEFYELDKK [PMM2_Y145] | phosphorylation enrichment | 0.588 |
| GYKVRYATWSI [FGFR1_Y210] | phosphorylation enrichment | 0.593 |
| DVFVSYDCGKS [SORL1_Y139_Y141C_YF] | phosphorylation enrichment | 0.592 |

====

target: EPHB1 (UniProt P54762); assay: phosphorylation enrichment, bacterial display (enrichment ratio); higher = better substrate or ligand; peptides without Tyr show the background
Lab note: anything with phosphorylation enrichment at or over 0.6 counts as rule met; the rest go in rule not met.

| residue.codes | label.class |
| --- | --- |
| ETKGDYEKILV [ANXA1_Y335] | rule met |
| NFDRIYIYHLR [MYOF_Y1137_V1136I] | rule met |
| YGAHNYHPLPV [OAT_Y55] | rule met |
| IINENYDYLKV [NUP98_Y1664_G1669V] | rule met |
| IKKFKYRIEEH [GJA1_Y137_G138R] | rule not met |
| LQPNNYQFCGG [CSF1R_Y969] | rule met |
| NKFTTYLPRLP [C9orf24_Y126_YF] | rule not met |
| NPQKSYLIRLF [WAS_Y83_F84L_YF] | rule not met |
| REVPVYTDSEP [FAM120B_Y368] | rule met |
| AFQGKYTPSGQ [ALDOA_Y343_C339Y_YF] | rule not met |
| KVITDYYVDMK [MPP4_Y566] | rule met |
| VEGISYDFIPT [CBS_Y308_G307S] | rule not met |
| DDLEVYLKHPL [SACS_Y3477_L3481P] | rule met |
| AVISVYDLVAV [PSEN1_Y256] | rule met |
| PTTKTYFPQFD [HBA1_Y43_H46Q] | rule met |
| DMDATYRPMFS [JUP_Y701_YF] | rule not met |
| PNATLYKMTSI [SERPINA7_Y40_S43T] | rule met |
| ADLLDYIKALN [HPRT1_Y81] | rule met |
| KVKPIYFHTRG [AR_Y916_Q920R] | rule not met |
| GKTQQYECKWY [BCR_Y751_D752E] | rule not met |
| CTTFHYNYMCN [TP53_Y234_I232F] | rule met |
| CLEKEYFDQHF [NPC1_Y394_R389C] | rule not met |
| EEKKKYYDTKI [CASP5_Y103] | rule not met |
| KKHFSYAWPFY [BRDT_Y291] | rule met |
| DGNIDYAEFAK [MCFD2_Y138_Y135N] | rule not met |
| FSLIHYAGIVV [MYH7_Y582_D587V] | rule met |
| SLIDGYFRLTE [JAK2_Y372_A377E_YF] | rule not met |
| QAKRKYQEASK [FES_Y156] | rule not met |
| PESIMYWKFTT [NTRK3_Y744_R745W] | rule met |
| PYYTSYPPSPD [GDAP2_Y491] | rule met |
| LHQSTYQCFDV [SLC7A14_Y693_R695C_YF] | rule met |
| SIVEDYRPPFY [ACVRL1_Y421_G416S] | rule met |
| PTTKTYFLHFD [HBA1_Y43_P45L] | rule met |
| QFPDVYAREEV [CRX_Y67_YF] | rule not met |
| VSKGGYFSVNL [C3orf33_Y164] | rule not met |
| PVDGEYFTLQI [TP53_Y327_L323V] | rule met |
| LVTCSYLLGNS [LMNA_Y646_R644C] | rule met |
| LITTLYIGFLG [KCNQ1_Y267] | rule met |
| ARGMEYLAEQK [MST1R_Y1198_G1195S] | rule not met |
| SIKHKYVTALF [KCNH2_Y611_D609H_YF] | rule not met |
| LSPPVYLTNEW [NRK_Y885_I880L] | rule met |
| PLQKTYNHNVL [SLC4A1_Y553_Y555H] | rule not met |
| HYGNNYRDVLQ [MACC1_Y803] | rule met |
